Origin of measurements: ChEMBL document CHEMBL5154787

measurementDescription: Metabolic stability in rat liver microsomes assessed as parent compound remaining at 0.5 uM incubated for 10 mins in presence of NADPH by LC-MS/MS analysis
Assay type: ADME, Microsome
runConditions: read-out: Stability
Would you kindly list remaining at 10 min, 0.5 µM for each of these compounds?
Answers are plain numbers, in %.

Consider the reported remaining at 10 min, 0.5 µM for these compounds:
{"compound": "CC(=O)Nc1cc(-c2ccc(OC[C@@](C)(N)CC(C)C)c(C(F)(F)F)c2)ccn1", "unitAbbrev": "%", "remaining at 10 min, 0.5 µM": 90}
{"compound": "Cc1cc(-c2ccnc(C(F)F)c2)ncc1OC[C@@](C)(N)CC(C)C", "unitAbbrev": "%", "remaining at 10 min, 0.5 µM": 76}

Report remaining at 10 min, 0.5 µM for each item below.
1. CC(=O)Nc1cc(-c2ccc(OC[C@@](C)(N)CC(C)C)c(C#N)c2)ccn1
2. CC(=O)Nc1cc(-c2ccc(OC[C@@H](N)CC(C)C)c(OC(F)(F)F)c2)ccn1
3. COC(=O)Nc1cc(-c2ccc(OC[C@@](C)(N)CC(C)C)c(C)c2)ccn1 (racemic)
4. COC(=O)Nc1cc(-c2ccc(OC[C@@](C)(N)CC(C)C)c(Cl)n2)ccn1
5. COC(=O)Nc1cc(-c2cnc(OC[C@@](C)(N)CC(C)C)c(Cl)c2)ccn1

Resp:
1: 78; 2: 80; 3: 96; 4: 99; 5: 73
